Test system: M14 melanoma
Assay: NCI tumour cell line growth inhibition, 48 h
REPORTED ENDPOINT: TGI

Value of TGI reported for the compound `N#C/C(N)=C(\C#N)NC=NCCO` is > 100 µM

Value of TGI reported for the compound CN(C)CC1CCCC/C1=N/O (stereo not drawn) is > 100 µM

Value of TGI reported for the compound `C/C(=N\NC(N)=S)c1ccc2c(c1)Sc1ccccc1O2` is > 100 µM

----------
System: IGROV1 ovarian
Experiment: NCI tumour cell line growth inhibition, 48 h
What TGI was measured for each of the following?
Lab book: enter the figure in µM, no units written.

Log: IGROV1 ovarian, compound CCCC/C=C/C=C/C=C/CCCCCCCC(=O)OCC(COC(=O)CCCCCCC/C=C/C1C=CC(CCCC)C(C(=O)O)C1C(=O)O)OC(=O)CCCCCCC/C=C/C=C/C=C/CCCC (stereo not given) (tested in a mixture with another compound) , TGI = 37.8

Log: IGROV1 ovarian, compound `COc1ccc(Cn2c(Br)c3c(c2Br)-c2nc(N)sc2CC3)cc1` , TGI = 39.2

Reference for the values: PubChem BioAssay (NCI)
